Exercise: state measured inhibition at 10 µM for each of the compounds provided.
# MEASURED_ON: panel of 203 kinases (Homo sapiens)
# Construct: purchased DiscoverX (KINOMEscan)
# PROTOCOL_TEXT: KINOMEscan competitive binding, whole panel
# APPLIED_CONDITIONS: 10 µM, n=1; kinase AMPK-alpha2; read-out: Percent inhibition AMPK-alpha2
# From the text: The kinases were expressed as fusions to T7 bacteriophage. This is a sensitive, competitive binding assay where test compounds were used to displace immobilized ATP-site binding probe ligands from kinases of interest. The amount of kinase that remained bound to the immobilized probe ligands on the solid support was quantified. Percentage inhibition data were was plotted on kinome trees using the web-based tool KinMap (http://www.kinhub.org/kinmap) ([60]).
# number only, unit % dropped from output

According to the records, this compound Cc1ccc(O)cc1N(C)c1ccnc(Nc2cccc(S(N)(=O)=O)c2)n1 [Compound 4] displays inhibition at 10 µM of 0

compound COc1ccc(Nc2nccc(-c3cnn4ncccc34)n2)cc1 [Compound 2] , inhibition at 10 µM observed: 0

So for C[C@@H](Oc1cc(-c2cnc3ccccn23)sc1C(N)=O)c1ccccc1Cl [Compound 8] , the logged inhibition at 10 µM turned out to be 0

Lookup result for c1ccc(COc2cccc(-c3ccnc4[nH]ccc34)c2)cc1 [Compound 9] ; measured inhibition at 10 µM: 0

# compound Clc1ccc(Nc2ncc(-c3ccccc3)s2)cc1 [Compound 10] ; its inhibition at 10 µM = 0

Memo: Cc1ccc(O)cc1Nc1ccnc(Nc2cccc(C(N)=O)c2)n1 [Compound 3] , reported inhibition at 10 µM: 0

The recorded inhibition at 10 µM for CN1CCN(c2ccc(Nc3nccc(-c4cnn5ncccc45)n3)cc2C#N)CC1 [Compound 1] is 81.8

Fc1cccc(COc2ccc(Nc3ncnc4c3CN(CCN3CCOCC3)CC4)cc2Cl)c1 [Compound 6] has a reported inhibition at 10 µM of 0

Documented inhibition at 10 µM of Nc1ncc2c(-c3ccncc3)c[nH]c2n1 [Compound 11] : 0

Reported inhibition at 10 µM for COc1cc(Nc2nccc(-c3sc(N)nc3-c3cccc(NC(=O)c4c(F)cccc4F)c3)n2)cc(OC)c1OC [Compound 7] was 100

* * *

# MEASURED_ON: panel of 203 kinases (Homo sapiens)
# Construct: purchased DiscoverX (KINOMEscan)
# PROTOCOL_TEXT: KINOMEscan competitive binding, whole panel
# APPLIED_CONDITIONS: 10 µM, n=1; kinase MST4; read-out: Percent inhibition MST4
READOUT_TYPE: inhibition at 10 µM (%)
Your answer should be a plain number; it is taken to be in %.

Please fill in: inhibition at 10 µM reported for Fc1cccc(COc2ccc(Nc3ncnc4c3CN(CCN3CCOCC3)CC4)cc2Cl)c1 = 0

The compound listed as COc1cc(Nc2nccc(-c3sc(N)nc3-c3cccc(NC(=O)c4c(F)cccc4F)c3)n2)cc(OC)c1OC shows inhibition at 10 µM equal to 89.2

// c1ccc(COc2cccc(-c3ccnc4[nH]ccc34)c2)cc1 : inhibition at 10 µM value = 0

inhibition at 10 µM for Clc1ccc(Nc2ncc(-c3ccccc3)s2)cc1 is 0

So, C[C@@H](Oc1cc(-c2cnc3ccccn23)sc1C(N)=O)c1ccccc1Cl ? Its inhibition at 10 µM was 0

Record Cc1ccc(O)cc1N(C)c1ccnc(Nc2cccc(S(N)(=O)=O)c2)n1 , field inhibition at 10 µM: 0

The reported value for Nc1ncc2c(-c3ccncc3)c[nH]c2n1 in terms of inhibition at 10 µM is 84

// inhibition at 10 µM lookup, compound = CN1CCN(c2ccc(Nc3nccc(-c4cnn5ncccc45)n3)cc2C#N)CC1 , result: 92.8

The recorded inhibition at 10 µM for COc1ccc(Nc2nccc(-c3cnn4ncccc34)n2)cc1 is 0

Item: Cc1ccc(O)cc1Nc1ccnc(Nc2cccc(C(N)=O)c2)n1 | inhibition at 10 µM: 0

* * *

# MEASURED_ON: panel of 203 kinases (Homo sapiens)
# Construct: purchased DiscoverX (KINOMEscan)
# PROTOCOL_TEXT: KINOMEscan competitive binding, whole panel
# APPLIED_CONDITIONS: 10 µM, n=1; kinase MAP4K1; read-out: Percent inhibition MAP4K1
READOUT_TYPE: inhibition at 10 µM (%)
Use % as the unit, but write only the number.

Memo: Nc1ncc2c(-c3ccncc3)c[nH]c2n1 [Compound 11] , reported inhibition at 10 µM: 0

Recorded result, CN1CCN(c2ccc(Nc3nccc(-c4cnn5ncccc45)n3)cc2C#N)CC1 [Compound 1] , inhibition at 10 µM: 99.5

According to the records, this compound Clc1ccc(Nc2ncc(-c3ccccc3)s2)cc1 [Compound 10] displays inhibition at 10 µM of 0

Sure, the documented inhibition at 10 µM for c1ccc(COc2cccc(-c3ccnc4[nH]ccc34)c2)cc1 [Compound 9] is 0

Briefly, inhibition at 10 µM measured for Cc1ccc(O)cc1Nc1ccnc(Nc2cccc(C(N)=O)c2)n1 [Compound 3] : 83.9

Recorded result, COc1ccc(Nc2nccc(-c3cnn4ncccc34)n2)cc1 [Compound 2] , inhibition at 10 µM: 0

In plain terms, Cc1ccc(O)cc1N(C)c1ccnc(Nc2cccc(S(N)(=O)=O)c2)n1 [Compound 4] has a documented inhibition at 10 µM of 99.5

Short answer for Fc1cccc(COc2ccc(Nc3ncnc4c3CN(CCN3CCOCC3)CC4)cc2Cl)c1 [Compound 6] : inhibition at 10 µM was 0

// sample C[C@@H](Oc1cc(-c2cnc3ccccn23)sc1C(N)=O)c1ccccc1Cl [Compound 8] , its inhibition at 10 µM was 0

The value of inhibition at 10 µM measured for the compound COc1cc(Nc2nccc(-c3sc(N)nc3-c3cccc(NC(=O)c4c(F)cccc4F)c3)n2)cc(OC)c1OC [Compound 7] turned out to be 96.3

* * *

# MEASURED_ON: panel of 203 kinases (Homo sapiens, UniProt Q9Y4K4)
# Construct: purchased DiscoverX (KINOMEscan)
# Sequence (Q9Y4K4 whole entry): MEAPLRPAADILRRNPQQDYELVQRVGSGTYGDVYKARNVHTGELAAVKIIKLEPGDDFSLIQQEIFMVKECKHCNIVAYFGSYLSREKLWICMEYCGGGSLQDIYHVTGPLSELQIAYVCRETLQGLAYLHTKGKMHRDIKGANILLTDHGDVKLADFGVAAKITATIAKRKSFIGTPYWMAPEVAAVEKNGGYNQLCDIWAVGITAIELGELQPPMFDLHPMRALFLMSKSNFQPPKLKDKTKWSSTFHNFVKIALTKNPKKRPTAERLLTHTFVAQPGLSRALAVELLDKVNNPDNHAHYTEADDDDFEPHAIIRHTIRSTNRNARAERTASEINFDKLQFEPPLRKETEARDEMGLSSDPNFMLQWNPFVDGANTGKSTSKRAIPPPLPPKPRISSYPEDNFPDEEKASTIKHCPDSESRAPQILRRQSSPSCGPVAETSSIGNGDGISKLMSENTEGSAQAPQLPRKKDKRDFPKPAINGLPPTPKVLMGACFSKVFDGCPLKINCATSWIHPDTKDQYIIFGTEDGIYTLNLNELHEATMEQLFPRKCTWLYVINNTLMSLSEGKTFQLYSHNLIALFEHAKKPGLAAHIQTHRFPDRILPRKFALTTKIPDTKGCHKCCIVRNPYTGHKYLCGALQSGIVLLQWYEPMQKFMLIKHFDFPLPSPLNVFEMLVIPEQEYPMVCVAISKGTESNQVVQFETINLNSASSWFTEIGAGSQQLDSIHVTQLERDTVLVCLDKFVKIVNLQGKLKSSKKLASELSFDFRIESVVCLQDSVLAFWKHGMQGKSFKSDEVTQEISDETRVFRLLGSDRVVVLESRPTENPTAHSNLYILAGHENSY
# PROTOCOL_TEXT: KINOMEscan competitive binding, whole panel
# APPLIED_CONDITIONS: 10 µM, n=1; kinase MAP4K5; read-out: Percent inhibition MAP4K5
Kindly state inhibition at 10 µM for each of the entries shown.
Give just the numeric value; % need not be written.

Entry Cc1ccc(O)cc1Nc1ccnc(Nc2cccc(C(N)=O)c2)n1 — recorded inhibition at 10 µM = 94.6

Fc1cccc(COc2ccc(Nc3ncnc4c3CN(CCN3CCOCC3)CC4)cc2Cl)c1 yielded inhibition at 10 µM of 0

The reported value for C[C@@H](Oc1cc(-c2cnc3ccccn23)sc1C(N)=O)c1ccccc1Cl in terms of inhibition at 10 µM is 82.7

The compound listed as COc1ccc(Nc2nccc(-c3cnn4ncccc34)n2)cc1 shows inhibition at 10 µM equal to 0

The recorded inhibition at 10 µM for Clc1ccc(Nc2ncc(-c3ccccc3)s2)cc1 is 0

inhibition at 10 µM measured on Nc1ncc2c(-c3ccncc3)c[nH]c2n1 = 0

* * *

Provide the recorded inhibition at 10 µM for the entries that follow.
# MEASURED_ON: panel of 203 kinases (Homo sapiens, UniProt Q8TDX7)
# Construct: purchased DiscoverX (KINOMEscan)
# Sequence (Q8TDX7 whole entry): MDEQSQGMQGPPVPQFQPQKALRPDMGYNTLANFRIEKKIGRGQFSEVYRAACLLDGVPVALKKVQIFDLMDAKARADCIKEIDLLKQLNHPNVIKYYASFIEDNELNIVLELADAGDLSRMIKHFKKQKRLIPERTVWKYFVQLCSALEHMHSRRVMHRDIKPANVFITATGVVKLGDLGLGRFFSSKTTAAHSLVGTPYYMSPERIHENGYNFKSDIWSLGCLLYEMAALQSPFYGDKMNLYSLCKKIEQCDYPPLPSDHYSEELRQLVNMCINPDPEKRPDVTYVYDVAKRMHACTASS
# PROTOCOL_TEXT: KINOMEscan competitive binding, whole panel
# APPLIED_CONDITIONS: 10 µM, n=1; kinase NEK7; read-out: Percent inhibition NEK7

compound Cc1ccc(O)cc1N(C)c1ccnc(Nc2cccc(S(N)(=O)=O)c2)n1 [Compound 4] , inhibition at 10 µM observed: 0%

Please fill in: inhibition at 10 µM reported for C[C@@H](Oc1cc(-c2cnc3ccccn23)sc1C(N)=O)c1ccccc1Cl [Compound 8] = 0%

Query CN1CCN(c2ccc(Nc3nccc(-c4cnn5ncccc45)n3)cc2C#N)CC1 [Compound 1] yields inhibition at 10 µM of 100%

What the record says about COc1ccc(Nc2nccc(-c3cnn4ncccc34)n2)cc1 [Compound 2] : inhibition at 10 µM is 100%

Reported inhibition at 10 µM ( Clc1ccc(Nc2ncc(-c3ccccc3)s2)cc1 [Compound 10] ) = 0%

Form: compound = COc1cc(Nc2nccc(-c3sc(N)nc3-c3cccc(NC(=O)c4c(F)cccc4F)c3)n2)cc(OC)c1OC [Compound 7] ; inhibition at 10 µM = 91.3%

In plain terms, Cc1ccc(O)cc1Nc1ccnc(Nc2cccc(C(N)=O)c2)n1 [Compound 3] has a documented inhibition at 10 µM of 0%

Reported inhibition at 10 µM for c1ccc(COc2cccc(-c3ccnc4[nH]ccc34)c2)cc1 [Compound 9] was 0%

The recorded inhibition at 10 µM for entry Fc1cccc(COc2ccc(Nc3ncnc4c3CN(CCN3CCOCC3)CC4)cc2Cl)c1 [Compound 6] equals 0%

The measured inhibition at 10 µM associated with Nc1ncc2c(-c3ccncc3)c[nH]c2n1 [Compound 11] reads 0%

* * *

# MEASURED_ON: panel of 203 kinases (Homo sapiens)
# Construct: purchased DiscoverX (KINOMEscan)
# PROTOCOL_TEXT: KINOMEscan competitive binding, whole panel
# APPLIED_CONDITIONS: 10 µM, n=1; kinase MLK3; read-out: Percent inhibition MLK3
# Excerpt: The kinases were expressed as fusions to T7 bacteriophage. This is a sensitive, competitive binding assay where test compounds were used to displace immobilized ATP-site binding probe ligands from kinases of interest. The amount of kinase that remained bound to the immobilized probe ligands on the solid support was quantified. Percentage inhibition data were was plotted on kinome trees using the web-based tool KinMap (http://www.kinhub.org/kinmap) ([60]).
READOUT_TYPE: inhibition at 10 µM (%)
Field: numeric (%). Do not append units.

So, Cc1ccc(O)cc1N(C)c1ccnc(Nc2cccc(S(N)(=O)=O)c2)n1 ? Its inhibition at 10 µM was 81

Value of inhibition at 10 µM reported for the molecule c1ccc(COc2cccc(-c3ccnc4[nH]ccc34)c2)cc1 is 0

Field inhibition at 10 µM (entry Cc1ccc(O)cc1Nc1ccnc(Nc2cccc(C(N)=O)c2)n1 ) reads 69.4

// inhibition at 10 µM lookup, molecule = C[C@@H](Oc1cc(-c2cnc3ccccn23)sc1C(N)=O)c1ccccc1Cl , result: 0

Given item CN1CCN(c2ccc(Nc3nccc(-c4cnn5ncccc45)n3)cc2C#N)CC1 , the value recorded as its inhibition at 10 µM is 0
